# method-notes: Apparent permeability across basolateral to apical side in human Caco2 cells
# Format: ADME, cell-based
# assay-context: Caco-2
measured-endpoint: Papp B→A (×10⁻⁶ cm/s)
Lab book: enter the figure in ×10⁻⁶ cm/s, no units written.

Prompt: Look up Papp B→A for this compound: Br.N=C(N)SCc1cc(F)ccc1Oc1ccc(F)cc1CSC(=N)N
Completion: 0.2

Prompt: Look up Papp B→A for this compound: Br.N=C(N)SCc1cc(F)ccc1Sc1ccc([N+](=O)[O-])cc1CSC(=N)N
Completion: 0.2

Prompt: Look up Papp B→A for this compound: Br.N=C(N)SCc1cc(F)cc2c1sc1c(CSC(=N)N)cc(Cl)cc12
Completion: 0.2

Prompt: Look up Papp B→A for this compound: Br.N=C(N)SCc1cccc2c1C(=O)c1c(CSC(=N)N)cccc1-2
Completion: 0.3

* * *

# method-notes: Apparent permeability across apical to basolateral side in human Caco2 cells
# Type: ADME, cell-based
# assay-context: Caco-2
For each entry below, report its Papp A→B value.

Prompt: Look up Papp A→B for this molecule: Br.N=C(N)SCc1cc(F)ccc1Sc1cc(F)c(F)cc1CSC(=N)N
Completion: < 0.1 ×10⁻⁶ cm/s

Prompt: Look up Papp A→B for this molecule: Br.N=C(N)SCc1cccc2c1-c1c(CSC(=N)N)cccc1-2
Completion: < 0.1 ×10⁻⁶ cm/s

Prompt: Look up Papp A→B for this molecule: Br.CN(C)S(=O)(=O)c1ccc(Sc2ccc(F)cc2CSC(=N)N)c(CSC(=N)N)c1
Completion: < 0.1 ×10⁻⁶ cm/s

Prompt: Look up Papp A→B for this molecule: Br.CS(=O)(=O)c1ccc(Sc2ccc(F)cc2CSC(=N)N)c(CSC(=N)N)c1
Completion: < 0.1 ×10⁻⁶ cm/s

Data provenance is ChEMBL document CHEMBL2057084.
